# assay-name: protein stability index of a GFP-peptide fusion (GPS, HEK-293T) (PSI 1-6); higher = more stable;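 note: 24-mer peptide tiles fused after GFP, lentivirally expressed, FACS-sorted into six equal bins by GFP/DsRed ratio, decoded by Illumina sequencing, PSI is the read-weighted mean bin number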
# condition-label: treatment: DMSO; c terminus: a fixed tail appended
Given measured protein stability index, output T if it is greater than or equal to 3 and F if not.

Evaluate FTFLRPLSVQQPTALALEPDAIRS [PCDHGC5] : protein stability index at minimum 3? F

Further cases:
Evaluate DFKDFYPAIADLFAESLQCKVDCE [P3H4] : protein stability index at minimum 3? F

Evaluate GGAGSGFGGGYGGGLGGGYGGGLG [KRT13] : protein stability index at minimum 3? T

Evaluate LLEDARRKGMPFAQWDGPTVVSWL [PPFIA4] : protein stability index at minimum 3? F

Evaluate DAGGWVLIDRSGRHFGTILNYLRD [KCTD13] : protein stability index at minimum 3? F

Evaluate DLVAMQWADAAGEAVPEGPDGGGP [ZSWIM9] : protein stability index at minimum 3? T

Measured values drawn from the supplement of paper PMC10567573 for this set.
